Experiment: Measuring spectral characteristics (absorption and emission maxima, extinction coefficients)
Type: physicochemical
Details: water
Kindly supply the reported Emis. peak values for the records listed here.
Give bare numbers, in nm.

Below are worked cases with known answers.
compound: CCN(CC)c1ccc(/C=C2N=C(/C=C/N(C)C)N(C)C\2=O)c(B(F)F)c1
uom: nm
Emis. peak: 598

compound: CC1=N/C(=C\c2ccc(N(C)C)cc2B(F)F)C(=O)N1C
uom: nm
Emis. peak: 565

Here are 2 molecules. What values of Emis. peak were reported for them?
1. CCN(CC)c1ccc(/C=C2\N=C(C)N(C)C2=O)c(B(F)F)c1
2. CC1=N/C(=C\c2ccc(N)cc2B(F)F)C(=O)N1C

**Result**
562
532

* * *

Test: Measuring spectral characteristics (absorption and emission maxima, extinction coefficients)
Type: physicochemical
Conditions: ethanol; anionic form
readout name: ext. coef.
# answer = value followed by unit

molecule: CC1=N/C(=C\c2cc(F)c(O)cc2B(F)F)C(=O)N1C [F-p-HOBDI-BF2]
ext. coef.: 48000 M⁻¹ cm⁻¹
--
molecule: CC1=N/C(=C\c2cc(F)c(O)c(F)c2B(F)F)C(=O)N1C [di-F-p-HOBDI-BF2]
ext. coef.: 45000 M⁻¹ cm⁻¹

**Query** Data request, read-out ext. coef., for CC1=N/C(=C\c2ccc(O)cc2B(F)F)C(=O)N1C [p-HOBDI-BF2]
**Result** 55000 M⁻¹ cm⁻¹

* * *

Experiment: Measuring spectral characteristics (absorption and emission maxima, extinction coefficients)
Assay type: physicochemical
Details: ethanol; neutral form
Hi there, I'd appreciate the recorded Abs. peak for every entry that follows.
Answers are plain numbers, in nm.

compound: CN(C)/C=C/C1=NC(=C\c2ccc(O)cc2B(F)F)/C(=O)N1C
Abs. peak / nm: 450

compound: CC1=N/C(=C\c2ccc(O)cc2B(F)F)C(=O)N1C
Abs. peak / nm: 416

compound: CC1=N/C(=C\c2cc(F)c(O)c(F)c2B(F)F)C(=O)N1C
Abs. peak / nm: 400

Let us examine a further case.
**Query** Which Abs. peak value is on record for CC1=N/C(=C\c2cc(F)c(O)cc2B(F)F)C(=O)N1C ?
**Result** 408

* * *

Test: Measuring spectral characteristics (absorption and emission maxima, extinction coefficients)
Type: physicochemical
Settings: ethanol
readout name: Abs. peak (nm)
One number for each entry, in nm.

Some solved cases for reference:
compound: CC1=N/C(=C\c2ccc(N(C)C)cc2B(F)F)C(=O)N1C [p-dimethylamino-BDI-BF2]
uom: nm
Abs. peak: 498
--
compound: CCN(CC)c1ccc(/C=C2\N=C(C)N(C)C2=O)c(B(F)F)c1 [p-diethylamino-BDI-BF2]
uom: nm
Abs. peak: 506
--
compound: CC1=N/C(=C\c2ccc(N)cc2B(F)F)C(=O)N1C [p-NH2-BDI-BF2]
uom: nm
Abs. peak: 476

--- query ---
**Query** Given the compound CCN(CC)c1ccc(/C=C2N=C(/C=C/N(C)C)N(C)C\2=O)c(B(F)F)c1 , what is its reported Abs. peak?
**Result** 525

* * *

Assay: Measuring spectral characteristics (absorption and emission maxima, extinction coefficients)
Format: physicochemical
Conditions: acetonitrile; neutral form
Would you mind telling me the reported ext. coef. of each entry?
Answers are plain numbers, in M⁻¹ cm⁻¹.

Solved entries:
compound: CC1=N/C(=C\c2cc(F)c(O)cc2B(F)F)C(=O)N1C
measured result: 28000

compound: CC1=N/C(=C\c2cc(F)c(O)c(F)c2B(F)F)C(=O)N1C
measured result: 26000

**Query** Look up ext. coef. for this compound: CC1=N/C(=C\c2ccc(O)cc2B(F)F)C(=O)N1C
**Result** 31000

* * *

Give Emis. peak for every item shown.
Assay: Measuring spectral characteristics (absorption and emission maxima, extinction coefficients)
Format: physicochemical
Details: acetonitrile; neutral form
Give bare numbers, in nm.

molecule: CC1=N/C(=C\c2cc(F)c(O)c(F)c2B(F)F)C(=O)N1C [di-F-p-HOBDI-BF2]
Emis. peak, nm: 460

For every item in the list below, what is its measured Emis. peak?
1. CC1=N/C(=C\c2cc(F)c(O)cc2B(F)F)C(=O)N1C [F-p-HOBDI-BF2]
2. CN(C)/C=C/C1=NC(=C\c2ccc(O)cc2B(F)F)/C(=O)N1C [p-HOBDI-dimethylaminoethenyl-BF2]
3. CC1=N/C(=C\c2ccc(O)cc2B(F)F)C(=O)N1C [p-HOBDI-BF2]

**Result**
1. 468
2. 502
3. 469

* * *

I'd be grateful if you could share measured Emis. peak for these entries.
Experiment: Measuring spectral characteristics (absorption and emission maxima, extinction coefficients)
Format: physicochemical
Settings: water; anionic form
Give bare numbers, in nm.

molecule: CC1=N/C(=C\c2ccc(O)cc2B(F)F)C(=O)N1C [p-HOBDI-BF2]
Emis. peak / nm: 520
//
molecule: CC1=N/C(=C\c2cc(F)c(O)c(F)c2B(F)F)C(=O)N1C [di-F-p-HOBDI-BF2]
Emis. peak / nm: 532
//
molecule: CN(C)/C=C/C1=NC(=C\c2ccc(O)cc2B(F)F)/C(=O)N1C [p-HOBDI-dimethylaminoethenyl-BF2]
Emis. peak / nm: 570

Switching to the query record.
**Query** Any idea what Emis. peak was measured for CC1=N/C(=C\c2cc(F)c(O)cc2B(F)F)C(=O)N1C [F-p-HOBDI-BF2] ?
**Result** 528

* * *

Give Emis. peak for every item shown.
Assay: Measuring spectral characteristics (absorption and emission maxima, extinction coefficients)
Assay type: physicochemical
Details: acetonitrile
Numbers only, in nm.

compound: CC1=N/C(=C\c2ccc(N)cc2B(F)F)C(=O)N1C
measured result: 518
//
compound: CCN(CC)c1ccc(/C=C2\N=C(C)N(C)C2=O)c(B(F)F)c1
measured result: 553
//
compound: CC1=N/C(=C\c2ccc(N(C)C)cc2B(F)F)C(=O)N1C
measured result: 551

Shift focus to the following entry.
**Query** For the compound CCN(CC)c1ccc(/C=C2N=C(/C=C/N(C)C)N(C)C\2=O)c(B(F)F)c1 , what Emis. peak is on record?
**Result** 583

* * *

Test: Measuring spectral characteristics (absorption and emission maxima, extinction coefficients)
Format: physicochemical
Details: water
readout name: ext. coef. (M⁻¹ cm⁻¹)
Give bare numbers, in M⁻¹ cm⁻¹.

**Query** Dear colleague, I am looking for the recorded ext. coef. of the following compound: CCN(CC)c1ccc(/C=C2\N=C(C)N(C)C2=O)c(B(F)F)c1
**Result** 54000

* * *

Assay: Quantum yield of fluorescence
Type: physicochemical
Conditions: water
readout name: Quantum yield of fluorescence
One number for each entry.

compound: CCN(CC)c1ccc(/C=C2\N=C(C)N(C)C2=O)c(B(F)F)c1
readout name: Quantum yield of fluorescence
measured result: 0.05
//
compound: CCN(CC)c1ccc(/C=C2N=C(/C=C/N(C)C)N(C)C\2=O)c(B(F)F)c1
readout name: Quantum yield of fluorescence
measured result: 0.35
//
compound: CC1=N/C(=C\c2ccc(N(C)C)cc2B(F)F)C(=O)N1C
readout name: Quantum yield of fluorescence
measured result: 0.05

Moving on to the next molecule.
**Query** Can you look up the measured Quantum yield of fluorescence of CC1=N/C(=C\c2ccc(N)cc2B(F)F)C(=O)N1C for me?
**Result** 0.70

* * *

Assay: Measuring spectral characteristics (absorption and emission maxima, extinction coefficients)
Type: physicochemical
Settings: ethanol; neutral form
I'd be grateful if you could share measured ext. coef. for these entries.
Record the result as number plus unit.

The examples below pair each entry with its known result.
compound: CC1=N/C(=C\c2cc(F)c(O)cc2B(F)F)C(=O)N1C [F-p-HOBDI-BF2]
ext. coef.: 24000 M⁻¹ cm⁻¹

compound: CC1=N/C(=C\c2ccc(O)cc2B(F)F)C(=O)N1C [p-HOBDI-BF2]
ext. coef.: 25000 M⁻¹ cm⁻¹

Alright, here's another compound for you.
**Query** Request the reported ext. coef. associated with CC1=N/C(=C\c2cc(F)c(O)c(F)c2B(F)F)C(=O)N1C [di-F-p-HOBDI-BF2]
**Result** 21000 M⁻¹ cm⁻¹

* * *

Assay: Measuring spectral characteristics (absorption and emission maxima, extinction coefficients)
Type: physicochemical
Settings: water; neutral form
readout name: ext. coef. (M⁻¹ cm⁻¹)
Numbers only, in M⁻¹ cm⁻¹.

compound: CC1=N/C(=C\c2ccc(O)cc2B(F)F)C(=O)N1C
ext. coef. [M⁻¹ cm⁻¹]: 26000

compound: CC1=N/C(=C\c2cc(F)c(O)cc2B(F)F)C(=O)N1C
ext. coef. [M⁻¹ cm⁻¹]: 31500

Turning now to a further molecule:
**Query** Could you tell me which ext. coef. is on file for CC1=N/C(=C\c2cc(F)c(O)c(F)c2B(F)F)C(=O)N1C ?
**Result** 32000

* * *

Assay: Measuring spectral characteristics (absorption and emission maxima, extinction coefficients)
Assay type: physicochemical
Details: ethanol; anionic form
What Abs. peak was measured for each of the following?
Numbers only, in nm.

As a guide, the following entries are already answered.
compound: CC1=N/C(=C\c2ccc(O)cc2B(F)F)C(=O)N1C
Abs. peak, nm: 512
//
compound: CN(C)/C=C/C1=NC(=C\c2ccc(O)cc2B(F)F)/C(=O)N1C
Abs. peak, nm: 529
//
compound: CC1=N/C(=C\c2cc(F)c(O)cc2B(F)F)C(=O)N1C
Abs. peak, nm: 505

**Query** GET /values?readout=Abs. peak&item= CC1=N/C(=C\c2cc(F)c(O)c(F)c2B(F)F)C(=O)N1C
**Result** 503
